# Tested on: Hepatitis C virus
# assayDetails: Antiviral activity against Hepatitis C virus genotype 6a infected in human HuH7 cells assessed as inhibition of subgenomic replicon RNA replication after 72 hrs by luciferase reporter assay
# Format: functional, cell-based, Hepacivirus hominis
# conditionLabel: Huh-7, 72 h
pEC50: −log10 of the molar value.
assayReadout: pEC50

# chemicalString, assayReadout, value
rows = [
    ("C[C@@]1(O)[C@H](O)[C@@H](CO)O[C@H]1c1ccc2c(N)ncnn12", "pEC50", 6.00),
]

###

# assayDetails: Cytotoxicity in rat heart myoblasts
# Set-up: species or system Myoblast

# chemicalString, CC50
rows = [
    ("C[C@@]1(O)[C@H](O)[C@@H](CO)O[C@H]1c1ccc2c(N)ncnn12", "> 250 µM"),
]

###

# assayDetails: Cytotoxicity in rat liver epithelial cells
# Assay type: cell-based, Epithelial cell

# chemicalString, CC50 [µM]
data = [
    ("C[C@@]1(O)[C@H](O)[C@@H](CO)O[C@H]1c1ccc2c(N)ncnn12", 190),
]

###

# System: Hepatitis C virus
# assayDetails: Antiviral activity against Hepatitis C virus genotype 5a infected in human HuH7 cells assessed as inhibition of subgenomic replicon RNA replication after 72 hrs by luciferase reporter assay
# Type: functional, cell-based, Hepacivirus hominis
# conditionLabel: Huh-7, 72 h

# chemicalString, EC50 [nM]
rows = [
    ("C[C@@]1(O)[C@H](O)[C@@H](CO)O[C@H]1c1ccc2c(N)ncnn12", 820),
]

###

# assayDetails: Cmax in Sprague-Dawley rat at 5 mg/kg, po by WinNonlin non-compartmental analysis
# Format: ADME, organism-based
# Set-up: dose 5 mg/kg, route oral
# conditionLabel: in vivo

# chemicalString, Cmax / nM
records = [
    ("C[C@@]1(O)[C@H](O)[C@@H](CO)O[C@H]1c1ccc2c(N)ncnn12", 2380),
]

###

Below is a list of entries, each paired with its recorded CC50 value.
# assayDetails: Cytotoxicity against human HuH7 cells by MTT assay
# Format: cell-based, Huh-7

# compound, CC50
rows = [
    ("C[C@@]1(O)[C@H](O)[C@@H](CO)O[C@H]1c1ccc2c(=O)[nH]c(N)nn12", "> 100 µM"),
    ("C[C@@]1(O)[C@H](O)[C@@H](CO)O[C@H]1n1ccc2c(N)ncnc21 [BETA-2'-C-METHYL-7-DEAZA-ADENOSINE]", "> 100 µM"),
    ("C[C@@]1(O)[C@H](O)[C@@H](CO)O[C@H]1c1cnc2c(=O)[nH]c(N)nn12", "> 100 µM"),
    ("C[C@@]1(O)[C@H](O)[C@@H](CO)O[C@H]1c1cnc2c(N)ncnn12", "34 µM"),
    ("C[C@@]1(O)[C@H](O)[C@@H](CO)O[C@H]1c1cnn2c(N)ncnc12", "> 100 µM"),
    ("C[C@@]1(O)[C@H](O)[C@@H](CO)O[C@H]1c1ccc2c(N)ncnn12", "> 100 µM"),
]

###

# assayDetails: Inhibition of C-terminal His6-tagged and C-terminal 21 amino acids truncated Hepatitis C virus genotype 3a VRL-69 NS5B RNA-dependent RNA polymerase activity using polyU or polyC RNA as template by microbeta plate reader analysis
# Parameters: species or system Hepatitis C virus subtype 3a

# chemicalString, IC50 [nM]
rows = [
    ("C[C@@]1(O)[C@H](O)[C@@H](CO)O[C@H]1c1ccc2c(N)ncnn12", 500),
]

###

# assayDetails: Total clearance in cynomolgus monkey at 2 mg/kg, iv and 5 mg/kg, po by WinNonlin non-compartmental analysis
# Type: ADME, organism-based, Macaca fascicularis
# conditionLabel: in vivo

# chemicalString, clearance (mL/min/kg)
data = [
    ("C[C@@]1(O)[C@H](O)[C@@H](CO)O[C@H]1c1ccc2c(N)ncnn12", 20.5),
]

###

# System: Hepatitis C virus
# assayDetails: Antiviral activity against Hepatitis C virus genotype 2a infected in human HuH7 cells assessed as inhibition of subgenomic replicon RNA replication after 72 hrs by luciferase reporter assay
# Type: functional, cell-based, Hepacivirus hominis
# conditionLabel: Huh-7, 72 h
assayReadout: EC50 (µM)

# chemicalString, value
records = [
    ("C[C@@]1(O)[C@H](O)[C@@H](CO)O[C@H]1c1ccc2c(N)ncnn12", 0.63),
]

###

# assayDetails: Volume of distribution at steady state in Sprague-Dawley rat at 2 mg/kg, iv and 5 mg/kg, po by WinNonlin non-compartmental analysis
# Format: ADME, organism-based
# conditionLabel: in vivo, read-out: Vdss

# chemicalString, Vd [L/kg]
rows = [
    ("C[C@@]1(O)[C@H](O)[C@@H](CO)O[C@H]1c1ccc2c(N)ncnn12", 4.19),
]
